# Target of assay: soluble recombinant human LAG3 (Homo sapiens, UniProt P18627)
# Construct: soluble recombinant human LAG3
# Sequence (P18627 23-450 limits assumed): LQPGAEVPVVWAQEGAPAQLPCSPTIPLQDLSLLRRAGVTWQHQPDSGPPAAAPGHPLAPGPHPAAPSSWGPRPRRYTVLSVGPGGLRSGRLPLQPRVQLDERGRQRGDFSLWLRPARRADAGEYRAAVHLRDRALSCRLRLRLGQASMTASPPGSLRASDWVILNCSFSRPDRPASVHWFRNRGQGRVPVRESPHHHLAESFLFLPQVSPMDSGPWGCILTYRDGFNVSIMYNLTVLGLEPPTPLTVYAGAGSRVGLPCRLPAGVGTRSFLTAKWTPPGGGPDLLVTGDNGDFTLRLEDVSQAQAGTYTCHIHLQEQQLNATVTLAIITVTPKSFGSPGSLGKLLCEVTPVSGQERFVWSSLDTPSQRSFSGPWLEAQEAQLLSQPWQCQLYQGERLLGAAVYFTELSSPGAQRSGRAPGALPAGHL
# Test: Clonal phage ELISA after phage display bio-panning
# Assay type: binding
# Study conditions: uncoated (background)
Property label: Clonal Phase ELISA uncoated signal

HIQNWSYWLNQDMMNQQVWKS (LAG3-56 peptide); 0.101
KVWQVPQDTQHWLSPNFYSV (LAG3-51 peptide); 0.076
ACGPGSFGDCGGG (LAG3-54 peptide); 0.103
SAPWEPLHWPEDWWQGTGEW (LAG3-11 peptide); 0.093
DWNFQQWDWKKHNHLDSHVV (LAG3-42 peptide); 0.084
HESGSVPHPWQFFTHYVS (LAG3-60 peptide); 0.091
FYSPNHEEYHDWNVDSSVNE (LAG3-48 peptide); 0.094
